experiment: Toxicity liver stage against HepG2, at 10uM; assay type: cell-based; set-up: test concentration 10 uM, cell line HepG2-A16-CD81EGFP; conditions: human, HepG2-A16-CD81EGFP cells; read-out: INHIBITION
READOUT TYPE: cytotoxicity at 10 µM (%)
The figure you give is taken to be in %; do not add the unit.

Query: Entry `CO[C@@H]1CCN(Cc2ccoc2)C[C@@H]1Cc1ccccc1` has what cytotoxicity at 10 µM?
Reply: 16.5

Query: Entry `O=C(O)C1(Oc2cccc(F)c2)CCN(c2ccncc2)CC1` has what cytotoxicity at 10 µM?
Reply: 0.423

Query: Entry N#Cc1ccc(OCC(O)CN2CCN(c3nccs3)CC2)cc1 (stereo unspecified) has what cytotoxicity at 10 µM?
Reply: 2.06

Query: Entry CCOCC1CN(S(=O)(=O)N(C)C)Cc2cnn(C)c21 (stereo unspecified) has what cytotoxicity at 10 µM?
Reply: -4.2

Query: Entry Cc1cn2c(n1)CCC(NC(=O)CCOc1cccc(F)c1)C2 (stereo unspecified) has what cytotoxicity at 10 µM?
Reply: -3.42

Query: Entry CC(CN1CCCC1=O)NC(=O)c1cc(-c2cccc(Cl)c2)no1 (stereo unspecified) has what cytotoxicity at 10 µM?
Reply: 5.75

Query: Entry `COCC(=O)N1CCC2(CC1)COCCN2CCN(C)C` has what cytotoxicity at 10 µM?
Reply: -3.28

Query: Entry `Cc1noc(C)c1CN(C)CCc1nc(-c2cccc(Cl)c2)no1` has what cytotoxicity at 10 µM?
Reply: 16.6

Query: Entry Cc1nc(C)n(CC2CCCN2CC(=O)Nc2cc(C(C)C)no2)n1 (stereo unspecified) has what cytotoxicity at 10 µM?
Reply: -0.292

Query: Entry `COc1ccc(CNC(=O)Nc2ccc(N3CCCC3)nc2)cc1O` has what cytotoxicity at 10 µM?
Reply: -18.1

Query: Entry `O=C1NC[C@@]2(C(=O)O)CN(Cc3cccc(CN4CCOCC4)c3)C[C@@H]12` has what cytotoxicity at 10 µM?
Reply: -7.98

---

experiment: Toxicity liver stage against HepG2, at 10uM; type: cell-based; design: test concentration 10 uM, cell line HepG2-A16-CD81EGFP; conditions: human, HepG2-A16-CD81EGFP cells; read-out: INHIBITION
READOUT TYPE: cytotoxicity at 10 µM (%)
The figure you give is taken to be in %; do not add the unit.

Query: Entry CS(=O)(=O)c1cccc(C(N)c2ccc(Cl)cc2)c1 (configuration not stated) has what cytotoxicity at 10 µM?
Reply: -16.1

Query: Entry COc1ccc2c(c1)C(C(=O)NCCN1CCOC1=O)CC(=O)N2 (configuration not stated) has what cytotoxicity at 10 µM?
Reply: 8.68

Query: Entry Cc1ccccc1CSc1nc(N)cc(N2CCCC(C(N)=O)C2)n1 (configuration not stated) has what cytotoxicity at 10 µM?
Reply: -2.32

Query: Entry O=C(c1csc(-c2ccco2)n1)N1CCN2CCCCC2C1 (configuration not stated) has what cytotoxicity at 10 µM?
Reply: 5.6

Query: Entry CN1CC(c2ccccc2)C2(CCN(C(=O)c3cccn3C)CC2)C1=O (configuration not stated) has what cytotoxicity at 10 µM?
Reply: 3.83

Query: Entry `CC(C)N(Cc1nccn1C)C(=O)c1cnc(O)cn1` has what cytotoxicity at 10 µM?
Reply: -1.82

Query: Entry COc1cccc(CCC2CCCN(C(=O)C3=NN(C)C(=O)CC3)C2)c1 (configuration not stated) has what cytotoxicity at 10 µM?
Reply: -2.06

Query: Entry `CC(=O)N1CC[C@H]2OCC[C@@]2(C(=O)NCCc2ccccn2)C1` has what cytotoxicity at 10 µM?
Reply: 6

Query: Entry `Cc1cnc(N2C[C@@H]3[C@@H](C2)OCC(=O)N3CCN(C)C)nc1` has what cytotoxicity at 10 µM?
Reply: -4.35

Query: Entry `Cc1ccoc1C(=O)N1C[C@H](OCC2CC2)[C@H]2OCCC[C@H]21` has what cytotoxicity at 10 µM?
Reply: 2.89

Query: Entry `Cc1cccc(CN2C(=O)C[C@H]3[C@@H]2CCN3Cc2cccs2)n1` has what cytotoxicity at 10 µM?
Reply: -79.6

Query: Entry CCC1CN(C(=O)c2cc(C(C)=O)c(C)[nH]c2=O)CCN1C(C)C (configuration not stated) has what cytotoxicity at 10 µM?
Reply: 6.03

Query: Entry Cc1cc(C)n(CC2CN(Cc3cccc(C(N)=O)c3)CCO2)n1 (configuration not stated) has what cytotoxicity at 10 µM?
Reply: -4.97

Query: Entry COc1c(C(=O)NC(C)CC(=O)c2cccs2)c(C)nn1C (configuration not stated) has what cytotoxicity at 10 µM?
Reply: -10.1

Query: Entry `CCCn1nc(C(=O)NCCc2nnc3n2CCC3)ccc1=O` has what cytotoxicity at 10 µM?
Reply: 3.38

Query: Entry `O=C(NCCN1CCCC1)c1cc2c(s1)CCN2C(=O)c1ccccc1` has what cytotoxicity at 10 µM?
Reply: 0.559

Query: Entry `Cc1ccc(NCCCNc2nccc(-c3cn(C)nc3C)n2)nc1` has what cytotoxicity at 10 µM?
Reply: 14.5

Query: Entry `O=C(Nc1cccnc1)[C@H]1C[C@H]2OCC[C@H]2N(CC2CC2)C1` has what cytotoxicity at 10 µM?
Reply: 4.7

Query: Entry CCC(C)(CC(=O)OC)NC(=O)c1cccc(F)c1F (configuration not stated) has what cytotoxicity at 10 µM?
Reply: -4.13

Query: Entry `CC(C)OC(=O)CN1N=C(C(=O)N2CCCC2)S(=O)(=O)c2ccccc21` has what cytotoxicity at 10 µM?
Reply: -2.93

Query: Entry `CCS(=O)(=O)N1CCC2(CC1)CC[C@@]1(C(=O)N(C)C)CN(C(C)=O)C[C@@H]21` has what cytotoxicity at 10 µM?
Reply: 6.43

Query: Entry CS(=O)(=O)NCC1CCCN(C(=O)Nc2cccc3ccccc23)C1 (configuration not stated) has what cytotoxicity at 10 µM?
Reply: -139

---

test: Toxicity liver stage against HepG2, at 10uM; format: cell-based; set-up: test concentration 10 uM, cell line HepG2-A16-CD81EGFP; conditions: human, HepG2-A16-CD81EGFP cells; read-out: INHIBITION
READOUT TYPE: cytotoxicity at 10 µM (%)
The figure you give is taken to be in %; do not add the unit.

Query: Entry COCCn1ccnc1CN1CCc2[nH]cnc2C1c1cnn(C)c1C (configuration not stated) has what cytotoxicity at 10 µM?
Reply: -2.77

Query: Entry `Cn1cc(CN(Cc2ccccn2)Cc2ccccc2Cl)cn1` has what cytotoxicity at 10 µM?
Reply: -2.48

Query: Entry `Cn1ncc2c(N3CCC(CCO)CC3)nc(C(C)(C)C)nc21` has what cytotoxicity at 10 µM?
Reply: 14.6

Query: Entry `COc1cccc(-c2nc(C)c(C(=O)NCCC(=O)O)s2)c1` has what cytotoxicity at 10 µM?
Reply: 8.69

Query: Entry `Cc1nc(-c2ccccc2)nc2c1CCN(Cc1nccn1C)CC2` has what cytotoxicity at 10 µM?
Reply: -118

Query: Entry Nc1nnc(SCC(=O)NCC(O)c2ccccc2)s1 (configuration not stated) has what cytotoxicity at 10 µM?
Reply: 12

Query: Entry `COc1cccc(CN2CCC3(CCN(c4ncc(F)cn4)CC3)C2)c1` has what cytotoxicity at 10 µM?
Reply: -0.664

Query: Entry CC(=O)Nc1ccc(SCC(O)COCc2ccc3c(c2)OCO3)cc1 (configuration not stated) has what cytotoxicity at 10 µM?
Reply: 3.56

Query: Entry O=C(CS(=O)(=O)Cc1ccccc1)NC1CCCCNC1=O (configuration not stated) has what cytotoxicity at 10 µM?
Reply: -1.46

Query: Entry CCCn1nccc1S(=O)(=O)N1CCC2(CCCN(C(C)C)C2=O)C1 (configuration not stated) has what cytotoxicity at 10 µM?
Reply: 5.96

Query: Entry `COc1ccc(CS(=O)(=O)CC(=O)NCC2CC2)cc1F` has what cytotoxicity at 10 µM?
Reply: -0.265

Query: Entry `COc1ccccc1C(=O)NCc1n[nH]c(C)n1` has what cytotoxicity at 10 µM?
Reply: -0.519

---

assay: Toxicity liver stage against HepG2, at 10uM; assay type: cell-based; design: test concentration 10 uM, cell line HepG2-A16-CD81EGFP; conditions: human, HepG2-A16-CD81EGFP cells; read-out: INHIBITION
READOUT TYPE: cytotoxicity at 10 µM (%)
The figure you give is taken to be in %; do not add the unit.

Query: Entry `O=C(NCCc1ccccn1)[C@@]12CCO[C@@H]1CCN(CC1CC1)C2` has what cytotoxicity at 10 µM?
Reply: 5.79

Query: Entry `CC(C)n1c(=O)c2ccccc2n(CCCN(C)C)c1=O` has what cytotoxicity at 10 µM?
Reply: -13.2

Query: Entry `CCOCCCNC(=O)c1cccn1Cc1cccnc1` has what cytotoxicity at 10 µM?
Reply: -43.8

Query: Entry `C/C=C(\C)CN1CCCn2nc(CNC(=O)C3CCC3)cc2C1` has what cytotoxicity at 10 µM?
Reply: 4.92

Query: Entry `O=C(c1ccco1)N1C[C@H]2CCCN(Cc3ccoc3)[C@H]2C1` has what cytotoxicity at 10 µM?
Reply: 0.276

Query: Entry `Cn1ccc(NC(=O)Cc2ccccc2F)n1` has what cytotoxicity at 10 µM?
Reply: 19.1

Query: Entry `COCCNC(=O)c1cccnc1Oc1ccc(Cl)cc1` has what cytotoxicity at 10 µM?
Reply: 6.99

Query: Entry `CCc1cc(-c2nccn2-c2ccccc2CN2CCOCC2)on1` has what cytotoxicity at 10 µM?
Reply: -7.91

Query: Entry COc1ncccc1C(=O)N1CCCC1c1c(C)n[nH]c1C (stereo not given) has what cytotoxicity at 10 µM?
Reply: 10.7

Query: Entry `Cc1cccnc1CN1CCN(C(=O)CCn2ccccc2=O)CC1` has what cytotoxicity at 10 µM?
Reply: 3.34

Query: Entry `CCOC(=O)CNC(=O)c1scnc1C` has what cytotoxicity at 10 µM?
Reply: 5.35

Query: Entry `CN(C)c1ncccc1CNS(=O)(=O)c1ccccc1F` has what cytotoxicity at 10 µM?
Reply: -4.81

Query: Entry COCC(=O)NC(c1ccccc1)c1ccc2c(c1)CCCO2 (stereo not given) has what cytotoxicity at 10 µM?
Reply: -1.83

Query: Entry `Cc1noc(C)c1CN(C)CC(=O)N1CCc2sccc2C1` has what cytotoxicity at 10 µM?
Reply: -19.4

Query: Entry Fc1cccc(Oc2ccc(CNCC3CNc4ccnn4C3)cn2)c1 (stereo not given) has what cytotoxicity at 10 µM?
Reply: -7.16

Query: Entry CC(C)OC(C)c1nnc(SCC(=O)O)n1-c1ccc(F)cc1F (stereo not given) has what cytotoxicity at 10 µM?
Reply: -11.6

Query: Entry `OCc1ccc(-c2c(-c3ccccc3)ncn2CCN2CCOCC2)o1` has what cytotoxicity at 10 µM?
Reply: -18.9

Query: Entry `Cc1cc(C)n(Cc2cccc(C(=O)NCCN3CCOCC3)c2)n1` has what cytotoxicity at 10 µM?
Reply: -12.8

Query: Entry `Clc1cc(Cl)cc(CN2CCC(NCc3cc[nH]n3)CC2)c1` has what cytotoxicity at 10 µM?
Reply: 11.1

Query: Entry COc1ccccc1CCNC(=O)CNCC1CN(C)CCO1 (stereo not given) has what cytotoxicity at 10 µM?
Reply: 1.49

Query: Entry Cc1ccc(C(O)CNCc2c(C(C)C)nn(C)c2N(C)C)cc1 (stereo not given) has what cytotoxicity at 10 µM?
Reply: -11.8

Query: Entry `CCn1ccc(NS(=O)(=O)c2cccc(CSC)c2)n1` has what cytotoxicity at 10 µM?
Reply: 10.4

Query: Entry Cc1cc(C(=O)NCc2ccc(F)cc2)c2c(C3CCCN3)noc2n1 (stereo not given) has what cytotoxicity at 10 µM?
Reply: 7.16

Query: Entry Cc1cnc(C(=O)N2CCC3(CCN(Cc4ccccn4)C3=O)C2)cn1 (stereo not given) has what cytotoxicity at 10 µM?
Reply: -140

Query: Entry `CN(Cc1cc(C2CC2)on1)C(=O)CN1C(=O)OC(C)(C)C1=O` has what cytotoxicity at 10 µM?
Reply: -127
